B1: NCK2 (parent)
chain: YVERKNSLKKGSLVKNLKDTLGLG

Variants of: B1
EXPERIMENT_DESCRIPTION: protein stability index of a GFP-peptide fusion (GPS, HEK-293T) (PSI 1-6); higher = more stable;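 also: lentivirally expressed fusions sorted by FACS into six bins by GFP to DsRed ratio, PSI derived from sequencing read proportions per bin multiplied by bin number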
MEASUREMENT_CONTEXT: c terminus: a fixed tail appended
Please enter fulfilled where protein stability index is greater than or equal to 2, and not fulfilled where it is lower.

variant=K5S cat=fulfilled
variant=L21W cat=fulfilled
variant=L17V cat=fulfilled
variant=L13H cat=fulfilled
variant=G24L cat="not fulfilled"
variant=L8C cat=fulfilled
variant=L8R cat=fulfilled
variant=E3Y cat="not fulfilled"
variant=L23S cat=fulfilled
variant=L13Y cat=fulfilled
variant=D19E cat=fulfilled
variant=S7P cat="not fulfilled"
variant=V2L cat=fulfilled
variant=N16Y cat="not fulfilled"
variant=E3D cat="not fulfilled"
variant=N6A cat=fulfilled
variant=N16D cat=fulfilled
variant=K5A cat=fulfilled
variant=G24Q cat=fulfilled
variant=S12F cat=fulfilled
variant=L13N cat=fulfilled
variant=L8N cat=fulfilled
variant=L23A cat=fulfilled
variant=D19T cat="not fulfilled"
variant=L8H cat=fulfilled
variant=L13I cat=fulfilled
variant=S12Y cat=fulfilled
variant=S7K cat=fulfilled
variant=L13T cat=fulfilled
variant=G22W cat=fulfilled
variant=R4A cat=fulfilled
variant=S7M cat="not fulfilled"
variant=L21V cat=fulfilled
variant=V14H cat="not fulfilled"
variant=D19Q cat=fulfilled
variant=L13D cat=fulfilled
variant=L17N cat=fulfilled
variant=G11Y cat="not fulfilled"
variant=Y1G cat=fulfilled
variant=S7V cat="not fulfilled"
variant=Y1N cat=fulfilled
variant=S7I cat="not fulfilled"
variant=K15E cat=fulfilled
variant=S12V cat=fulfilled
variant=R4S cat=fulfilled
variant=L8T cat=fulfilled
variant=N6T cat="not fulfilled"
variant=G11L cat="not fulfilled"
variant=T20S cat=fulfilled
variant=D19S cat=fulfilled
variant=R4N cat=fulfilled
variant=S12A cat=fulfilled
variant=D19L cat="not fulfilled"
variant=G22I cat="not fulfilled"
variant=V2P cat=fulfilled
variant=G11R cat=fulfilled
variant=G24H cat=fulfilled
variant=R4I cat="not fulfilled"
variant=L8V cat=fulfilled
variant=V2I cat=fulfilled
variant=V14T cat=fulfilled
variant=N6F cat="not fulfilled"
variant=R4H cat=fulfilled
variant=V14R cat=fulfilled
variant=L17W cat="not fulfilled"
variant=K10R cat=fulfilled
variant=L21S cat=fulfilled
variant=G11C cat=fulfilled
variant=K18A cat=fulfilled
variant=G22L cat="not fulfilled"
variant=L13A cat=fulfilled
variant=N6M cat=fulfilled
variant=V2N cat=fulfilled
variant=V14S cat=fulfilled
variant=L17T cat=fulfilled
variant=E3K cat=fulfilled
variant=L17H cat=fulfilled
variant=N6P cat=fulfilled
variant=R4D cat=fulfilled
variant=E3I cat=fulfilled
